Here is a set of compounds with reported pIC50 for human ACC2 (Homo sapiens (Human)), compiled from the literature.
pIC50: −log10 of the molar value.
PROPERTY_LABEL: pIC50

Examples with their reported pIC50 follow.
COMPOUND | pIC50
CC(=O)N[C@@H](C)c1ccc(OC2CCN(c3ncc(OCC4CC4)cc3C)C2)cc1 (stereo partly shown) | 6.81
CC(C)Oc1ccc(N2CC[C@@H](Oc3ccc([C@H](C)NC(=O)C(F)(F)F)cc3)C2)cc1 | 6.91
CC(CNC(=O)C(F)F)c1ccc(C#Cc2cnc(OC3CCC3)nc2)cc1 (stereo not shown) | 6.80

1: CCCNc1nccc(N2CC[C@@H](Oc3ccc(C(C)C(=O)NC4CC4C)cc3)C2)c1F (single isomer, unassigned)
2: C[C@H](NC(=O)C1CC(F)(F)C1)c1ccc(CN2CCc3cc(OCC4CC4(F)F)ccc3C2)cc1 (stereo partly shown)
3: COCCn1ccc(C#Cc2ccc(CC(C)NC(C)=O)cc2)cc1=O (stereo not shown)
IN: Number of compounds to sort: 3. Sort criterion: pIC50, ascending. API: response body holds the labels in the requested order.
OUT: 3, 2, 1

I: CC(=O)NC(C)Cc1ccc(C#Cc2cnc(OCc3ccccc3F)nc2)cc1 (stereo not shown)
II: CC(=O)NC(C)Cc1ccc(C#Cc2ccc(C(=O)NCC3CCCO3)cc2)cc1 (stereo not shown)
III: C[C@H](NC(=O)C1(C)CC1)c1ccc(OC2CCN(c3cccc(C(F)(F)F)n3)C2)cc1 (stereo partly shown)
IN: Number of compounds to sort: 3. Sort criterion: pIC50, ascending. API: response body holds the labels in the requested order.
OUT: II, I, III
(II: 4.58, I: 5.05, III: 6.86)

I: CCCOc1ccc(C#Cc2ccc(C(C)(C)NC(C)=O)cc2)cc1
II: CC(=O)NC(C)Cc1ccc(C#Cc2ccc(C(=O)N3CCOCC3)cc2)cc1 (stereo not shown)
III: COCC1CCCN1c1nccc(C#Cc2ccc(CC(C)NC(C)=O)cc2)n1 (stereo not shown)
IN: Rank order required: pIC50, descending. API: response body holds the labels in the requested order.
OUT: III, II, I

P: COc1ccccc1C(Cn1c(=O)n(C(C)(C)C(=O)O)c(=O)c2c(C)c(-c3ncco3)sc21)O[C@@H]1C[C@@H]2C[C@@H](S(C)(=O)=O)C[C@@H]2C1 (stereo partly shown)
Q: CC(=O)N[C@@H](C)c1ccc(O[C@@H]2CCN(c3ccnc(C(=O)N4CCc5c4ccc(F)c5F)c3)C2)cc1
R: CC(=O)NC(C)Cc1ccc(C#Cc2cccc(C(=O)N3CCN(C)CC3)c2)cc1 (stereo not shown)
IN: Number of compounds to sort: 3. Sort criterion: pIC50, ascending. API: response body holds the labels in the requested order.
OUT: R, Q, P
